system: μ-opioid receptors (Homo sapiens (Human), UniProt P35372)
experimental_protocol: μ-opioid receptor [35S]GTPγS functional assay, HEK-293 cells
Assay type: biochemical
test_conditions: μ GTP, relative to DAMGO, read-out: Activity Response μ Emax (%)
Attribute: Emax
Report the value in % with no unit label.

- smiles_entry: "O=C1C[C@]23CCN(CC4CC4)[C@H](Cc4ccc(O)cc42)[C@]3(O)C[C@@H]1NS(=O)(=O)c1ccccc1"
  data_value: 0

Give its Emax value. Item: COc1ccc2c(c1)[C@]13CCN(CC4CC4)[C@H](C2)[C@]1(O)C[C@H](CC(=O)O)C(=O)C3
59.7

Fill blank: measured Emax of the molecule CC(C)CC[C@H]1C[C@@]2(O)[C@H]3Cc4ccc(O)cc4[C@@]2(CCN3CC2CC2)CC1=O is ____.
1

Which Emax value is on record for O=C(O)C[C@H]1C[C@@]2(O)[C@H]3Cc4ccc(O)cc4[C@@]2(CCN3CC2CC2)CC1=O ?
-1

// Emax lookup, key: COc1ccc2c(c1)[C@]13CCN(CC4CC4)[C@H](C2)[C@]1(O)C[C@H](CCOCc1ccccc1)C(=O)C3
139

Record request: Emax value, item CC(C)[C@@H]1C[C@H]2[C@H]3Cc4ccc(O)cc4[C@@]2(CCN3CC2CC2)CC1=O
53.2

Value lookup for Emax; key = CCS(=O)(=O)N[C@H]1C[C@@]2(O)[C@H]3Cc4ccc(O)cc4[C@@]2(CCN3CC2CC2)CC1=O
5.5

###

system: UniProt:P41145
experimental_protocol: κ-opioid receptor [35S]GTPγS functional assay, U-2 OS cells
Format: biochemical
test_conditions: κ GTP, relative to U69,593, read-out: Activity Response κ Emax (%)
value_type: Emax (%)
Quick reminder: number only, in %, skip the unit.

Consider the following illustrative entries.
- molecule: "O=C1C[C@]23CCN(CC4CC4)[C@H](Cc4ccc(O)cc42)[C@]3(O)C[C@@H]1CC1CCCCC1 [Compound 70]"
  unit_descriptor: "%"
  data_value: 106
- molecule: "CCC(C)C[C@H]1C[C@@]2(O)[C@H]3Cc4ccc(O)cc4[C@@]2(CCN3CC2CC2)CC1=O (some centres unmarked) [Compound 66]"
  unit_descriptor: "%"
  data_value: 102
- molecule: "O=C(N[C@H]1C[C@@]2(O)[C@H]3Cc4ccc(O)cc4[C@@]2(CCN3CC2CC2)CC1=O)C1CC1 [Compound 34]"
  unit_descriptor: "%"
  data_value: 101
- molecule: "COc1ccc2c(c1)[C@]13CCN(CC4CC4)[C@H](C2)[C@]1(O)C[C@H](CCOCc1ccccc1)C(=O)C3 [Compound 48]"
  unit_descriptor: "%"
  data_value: 119
- molecule: "COc1ccc2c(c1)[C@]13CCN(C)[C@H](C2)[C@]1(O)C[C@H](CC(=O)N1CCOCC1)C(=O)C3 [Compound 79]"
  unit_descriptor: "%"
  data_value: 51
- molecule: "CC(=O)N[C@H]1C[C@@]2(O)[C@H]3Cc4ccc(O)cc4[C@@]2(CCN3CC2CC2)CC1=O [Compound 28]"
  unit_descriptor: "%"
  data_value: 86.7
- molecule: "CCCC[C@H]1C[C@@]2(O)[C@H]3Cc4ccc(O)cc4[C@@]2(CCN3CC2CC2)CC1=O [Compound 67]"
  unit_descriptor: "%"
  data_value: 101
- molecule: "COc1ccc2c(c1)[C@]13CCN(CC4CC4)[C@H](C2)[C@@H]1C[C@@H](C(C)C)C(=O)C3 [Compound 72]"
  unit_descriptor: "%"
  data_value: 102
- molecule: "COc1ccc2c(c1)[C@]13CCN(C)[C@H](C2)[C@]1(O)C[C@H](CC(=O)N1CCCCC1)C(=O)C3 [Compound 76]"
  unit_descriptor: "%"
  data_value: 47.7
- molecule: "CC[C@H](C)C(=O)N[C@H]1C[C@@]2(O)[C@H]3Cc4ccc(O)cc4[C@@]2(CCN3CC2CC2)CC1=O [Compound 37]"
  unit_descriptor: "%"
  data_value: 71.3

GET /values?readout=Emax&item= CC(C)C[C@H]1C[C@@]2(O)[C@H]3Cc4ccc(O)cc4[C@@]2(CCN3CC2CC2)CC1=O [Compound 69]
95.2

What value of Emax has been reported for the following molecule? CC(C)[C@H]1C[C@H]2[C@H]3Cc4ccc(O)cc4[C@@]2(CCN3CC2CC2)CC1=O [Compound 74]
91.3

What value of measured Emax is listed for COc1ccc2c(c1)[C@]13CCN(C)[C@H](C2)[C@]1(O)C[C@H](CC(=O)N1CCCC1)C(=O)C3 [Compound 77] ?
49

Give its Emax value. Item: O=C1C[C@]23CCN(CC4CC4)[C@H](Cc4ccc(O)cc42)[C@]3(O)C[C@@H]1CC1CCCC1 [Compound 65]
101

Look up Emax: C[C@H](NC(=O)C[C@H]1C[C@@]2(O)[C@H]3Cc4ccc(O)cc4[C@@]2(CCN3C)CC1=O)C(=O)O [Compound 75]
66.7

What measured Emax goes with CC(C)CCCC(=O)N[C@H]1C[C@@]2(O)[C@H]3Cc4ccc(O)cc4[C@@]2(CCN3CC2CC2)CC1=O [Compound 31] ?
90.7

Which value of Emax has been reported for CCOC(=O)C[C@H]1C[C@@]2(O)[C@H]3Cc4ccc(OC)cc4[C@@]2(CCN3C)CC1=O [Compound 59] in the records?
59

# lookup: Emax of CC(C)CC[C@H]1C[C@@]2(O)[C@H]3Cc4ccc(O)cc4[C@@]2(CCN3CC2CC2)CC1=O [Compound 64]
87.3

I'd like to know its Emax. The molecule in question is COc1ccc2c(c1)[C@]13CCN(C)[C@H](C2)[C@]1(O)C[C@H](CC(=O)N1CCC(O)CC1)C(=O)C3 [Compound 78]
53.3
